Origin of the recorded values: patent US20220409629A1

PROTOCOL: Liver microsomal stability, human
Type: in vitro ADME
CONDITION DETAILS: pH 7.4; human liver microsomes, 0.5 mg/mL protein, 1 μM compound, NADPH; >80% remaining at 45 min denoted >140; read-out: Liver Microsomal Stability: t1/2 (min); human
MEASURED PARAMETER: half-life (min)
Give just the number in min; leave the unit off.

State the recorded half-life for this entry: O=C(N[C@H]1N=C(c2ccccc2)c2cccc(F)c2NC1=O)c1cn(CC(F)(F)F)nc1-c1ccc(NC2CC2)nc1F [Example 33]
80.3

Can you handle O=C(N[C@H]1N=C(c2ccccc2)c2ccccc2NC1=O)c1cn(C2CCOCC2)nc1-c1ccc(NC2CC2)nc1F [Example 31] next?
116

Can you handle O=C(N[C@H]1N=C(c2ccccc2)c2ccccc2NC1=O)c1cnn(C2COC2)c1-c1ccc(NC2CC2)nc1F [Example 18] next?
144

Can you handle CCc1ccc(-c2c(C(=O)N[C@H]3N=C(c4ccccc4)c4cccc(F)c4NC3=O)cnn2C2CCOCC2)c(F)c1 [Example 47] next?
105

Can you handle O=C(N[C@H]1N=C(c2ccccc2)c2ccccc2NC1=O)c1cn(C2CCC(F)(F)CC2)nc1-c1ccc(NC2CC2)nc1F [Example 34] next?
119

Can you handle CCn1ncc(C(=O)N[C@H]2N=C(c3ccccc3)c3cccc(F)c3NC2=O)c1-c1ncc(NC(C)C)cc1F [Example 17] next?
120

Can you handle CCn1ncc(C(=O)N[C@H]2N=C(c3ccccc3)c3ccccc3NC2=O)c1-c1ccc(NC2CC2)nc1F [Example 4] next?
52
